These entries and their values trace back to patent US6914045B2.

// values below are reported MIC Enterococcus faecium (GC 2243)
System: Enterococcus sp.
Test: in vitro antibacterial evaluation, MIC by broth dilution
Format: cell-based
Conditions: Enterococcus faecium (GC 2243); broth dilution, 18 hours at 35° C.
Source text: Methods for in vitro Antibacterial Evaluation (Table 1) […]
Supply the numeric figure in µg/mL, leaving out any unit text.

Ask: Annotate the compound Cc1ccc(CC2OCC3OC(OC4C(CO)OC(Oc5ccc(CC6NC(=O)C(C(C)c7ccccc7)NC(=O)CNC(=O)C(CO)NC(=O)C(C(O)C7CNC(=N)N7C7OC(CO)C(O)C(O)C7O)NC(=O)C(C(O)C7CNC(=N)N7)NC6=O)cc5)C(O)C4O)C(O)C(O)C3O2)cc1 (stereo not shown) with its measured MIC Enterococcus faecium (GC 2243).
Result: 4

Next:
Ask: Given the compound CC(c1ccccc1)C1NC(=O)CNC(=O)C(CO)NC(=O)C(C(O)C2CNC(=N)N2C2OC(CO)C(O)C(O)C2O)NC(=O)C(C(O)C2CNC(=N)N2)NC(=O)C(Cc2ccc(OC3OC(CO)C(OC4OC5COC(c6cccs6)OC5C(O)C4O)C(O)C3O)cc2)NC1=O (stereo not shown) , write its reported MIC Enterococcus faecium (GC 2243).
Result: 8

Ask: Retrieve MIC Enterococcus faecium (GC 2243) measured for CSc1ccc(C2OCC3OC(OC4C(CO)OC(Oc5ccc(CC6NC(=O)C(C(C)c7ccccc7)NC(=O)CNC(=O)C(CO)NC(=O)C(C(O)C7CNC(=N)N7C7OC(CO)C(O)C(O)C7O)NC(=O)C(C(O)C7CNC(=N)N7)NC6=O)cc5)C(O)C4O)C(O)C(O)C3O2)cc1 (stereo not shown) and print it.
Result: 2

---

// values below are reported MIC Streptococcus pneumoniae (ATCC 6301)
System: Streptococcus sp.
Assay: in vitro antibacterial evaluation, MIC by broth dilution
Format: cell-based
Conditions: strain ATCC 6301; broth dilution, 18 hours at 35° C.

Ask: Write down measured MIC Streptococcus pneumoniae (ATCC 6301) (Streptococcus sp.) for this compound. CC(c1ccccc1)C1NC(=O)CNC(=O)C(CO)NC(=O)C(C(O)C2CNC(=N)N2C2OC(CO)C(O)C(O)C2O)NC(=O)C(C(O)C2CNC(=N)N2)NC(=O)C(Cc2ccc(O)c(NC(=S)Nc3cc(C(F)(F)F)cc(C(F)(F)F)c3)c2)NC1=O (stereo not shown)
Result: >64 µg/mL

---
Ask: Provide the reported MIC Streptococcus pneumoniae (ATCC 6301) (system: Streptococcus sp.) for CC(c1ccccc1)C1NC(=O)CNC(=O)C(CO)NC(=O)C(C(O)C2CNC(=N)N2C2OC(CO)C(O)C(O)C2O)NC(=O)C(C(O)C2CNC(=N)N2)NC(=O)C(Cc2ccc(OC3OC(CO)C(OC4OC5COC(c6cc7c(cc6Cl)OCO7)OC5C(O)C4O)C(O)C3O)cc2)NC1=O (stereo not shown)
Result: 0.12 µg/mL

Ask: Provide the reported MIC Streptococcus pneumoniae (ATCC 6301) (system: Streptococcus sp.) for CC(c1ccccc1)C1NC(=O)CNC(=O)C(CO)NC(=O)C(C(O)C2CNC(=N)N2C2OC(CO)C(O)C(O)C2O)NC(=O)C(C(O)C2CNC(=N)N2)NC(=O)C(Cc2ccc3oc(-c4cccc([N+](=O)[O-])c4)nc3c2)NC1=O (stereo not shown)
Result: 32 µg/mL

Ask: GET MIC Streptococcus pneumoniae (ATCC 6301) | system: Streptococcus sp. | item: COc1cc(C2OCC3OC(OC4C(CO)OC(Oc5ccc(CC6NC(=O)C(C(C)c7ccccc7)NC(=O)CNC(=O)C(CO)NC(=O)C(C(O)C7CNC(=N)N7C7OC(CO)C(O)C(O)C7O)NC(=O)C(C(O)C7CNC(=N)N7)NC6=O)cc5)C(O)C4O)C(O)C(O)C3O2)ccc1[N+](=O)[O-] (stereo not shown)
Result: <0.06 µg/mL

---

Test system: Enterococcus sp.
Assay: in vitro antibacterial evaluation, MIC by broth dilution
Format: cell-based
Conditions: broth dilution, inoculum 5×10^5 CFU/mL, 18 hours at 35° C.; strain GC 4558
Form field: MIC Enterococcus avium (GC 4558) (one value per entry).

For orientation, consider the following solved cases.
Ask: Given CC(c1ccccc1)C1NC(=O)CNC(=O)C(CO)NC(=O)C(C(O)C2CNC(=N)N2C2OC(CO)C(O)C(O)C2O)NC(=O)C(C(O)C2CNC(=N)N2)NC(=O)C(Cc2ccc(OC3OC(CO)C(OC4OC5COC6(CCCCCCCCCCC6)OC5C(O)C4O)C(O)C3O)cc2)NC1=O (centres unmarked) [Example 209] , respond with its MIC Enterococcus avium (GC 4558).
Result: 4 µg/mL

Ask: Give recorded MIC Enterococcus avium (GC 4558). CC(C)CC(=O)OC1C(O)C(OC2C(CO)OC(Oc3ccc(CC4NC(=O)C(C(C)c5ccccc5)NC(=O)CNC(=O)C(CO)NC(=O)C(C(O)C5CNC(=N)N5C5OC(CO)C(O)C(O)C5O)NC(=O)C(C(O)C5CNC(=N)N5)NC4=O)cc3)C(O)C2O)OC2COC3(OC21)C1CC2CC(C1)CC3C2 (centres unmarked) [Example 218]
Result: 4 µg/mL

Ask: Write down MIC Enterococcus avium (GC 4558) measured for item COc1ccc2cc(C3OCC4OC(OC5C(CO)OC(Oc6ccc(CC7NC(=O)C(C(C)c8ccccc8)NC(=O)CNC(=O)C(CO)NC(=O)C(CC8CNC(=N)N8C8OC(CO)C(O)C(O)C8O)NC(=O)C(CC8CNC(=N)N8)NC7=O)cc6)C(O)C5O)C(O)C(O)C4O3)ccc2c1 (centres unmarked) [Example 190]
Result: 16 µg/mL

Ask: Give the reported value of MIC Enterococcus avium (GC 4558) for this record: COc1ccc(Oc2cccc(C3OCC4OC(OC5C(CO)OC(Oc6ccc(CC7NC(=O)C(C(C)c8ccccc8)NC(=O)CNC(=O)C(CO)NC(=O)C(C(O)C8CNC(=N)N8C8OC(CO)C(O)C(O)C8O)NC(=O)C(C(O)C8CNC(=N)N8)NC7=O)cc6)C(O)C5O)C(O)C(O)C4O3)c2)cc1 (centres unmarked) [Example 180]
Result: 2 µg/mL

Ask: Supply recorded MIC Enterococcus avium (GC 4558) for CC(c1ccccc1)C1NC(=O)CNC(=O)C(CO)NC(=O)C(C(O)C2CNC(=N)N2C2OC(CO)C(O)C(O)C2O)NC(=O)C(C(O)C2CNC(=N)N2)NC(=O)C(Cc2ccc(OC3OC(CO)C(OC4OC(CO)C(OCc5ccc(OCc6ccccc6)cc5)C(O)C4O)C(O)C3O)cc2)NC1=O (centres unmarked) [Example 231a] here.
Result: 2 µg/mL

Now examine the next entry.
Ask: Tell me its MIC Enterococcus avium (GC 4558) given CC(c1ccccc1)C1NC(=O)CNC(=O)C(CO)NC(=O)C(C(O)C2CNC(=N)N2C2OC(CO)C(O)C(O)C2O)NC(=O)C(C(O)C2CNC(=N)N2)NC(=O)C(Cc2ccc(OC3OC(CO)C(OC4OC5COC6(CCSCC6)OC5C(O)C4O)C(O)C3O)cc2)NC1=O (centres unmarked) [Example 217] as the entry.
Result: 16 µg/mL

---

Each entry below carries its reported MIC Staphylococcus aureus (GC 1131).
Tested on: Staphylococcus sp.
Assay: in vitro antibacterial evaluation, MIC by broth dilution
Format: cell-based
Settings: strain GC 1131; broth dilution, 18 hours at 35° C.

Use the examples below as a reference point.
Ask: Return reported MIC Staphylococcus aureus (GC 1131). Input molecule: CC(c1ccccc1)C1NC(=O)CNC(=O)C(CO)NC(=O)C(C(O)C2CNC(=N)N2C2OC(CO)C(O)C(O)C2O)NC(=O)C(C(O)C2CNC(=N)N2)NC(=O)C(Cc2ccc3oc(SCc4ccc(-c5ccccc5)cc4)nc3c2)NC1=O (stereo not shown)
Result: 32 µg/mL

Ask: Return MIC Staphylococcus aureus (GC 1131) (reported value) for this molecule: CC(C)=CCCC(C)=CCCC(C)=CCOc1cccc(C2OCC3OC(OC4C(CO)OC(Oc5ccc(CC6NC(=O)C(C(C)c7ccccc7)NC(=O)CNC(=O)C(CO)NC(=O)C(C(O)C7CNC(=N)N7C7OC(CO)C(O)C(O)C7O)NC(=O)C(C(O)C7CNC(=N)N7)NC6=O)cc5)C(O)C4O)C(O)C(O)C3O2)c1 (stereo not shown)
Result: >64 µg/mL

Ask: Provide measured MIC Staphylococcus aureus (GC 1131) value, entry: CC(c1ccccc1)C1NC(=O)CNC(=O)C(CO)NC(=O)C(C(O)C2CNC(=N)N2C2OC(CO)C(O)C(O)C2O)NC(=O)C(C(O)C2CNC(=N)N2)NC(=O)C(Cc2ccc(OC3OC(COC(=O)CCC4CCCC4)C(OC4OC(CO)C(O)C(O)C4O)C(O)C3O)cc2)NC1=O (stereo not shown) [Example 100b]
Result: 2 µg/mL

// next entry
Ask: Tell me measured MIC Staphylococcus aureus (GC 1131) for CC(c1ccccc1)C1NC(=O)CNC(=O)C(CO)NC(=O)C(C(O)C2CNC(=N)N2C2OC(CO)C(O)C(O)C2O)NC(=O)C(C(O)C2CNC(=N)N2)NC(=O)C(Cc2ccc(OC3OC(CO)C(OC4OC(CO)C(O)C5OC(c6ccccc6)OC45)C(O)C3O)cc2)NC1=O (single isomer, unassigned) [Example 104b] please.
Result: 0.5 µg/mL
